TGT: DPP-IV (Homo sapiens, UniProt P27487)
Construct: The cell extract was obtained from the cells solubilized in a buffer; endogenous in cells; Nonidet-P40 solubilized extract
Sequence (P27487 whole entry): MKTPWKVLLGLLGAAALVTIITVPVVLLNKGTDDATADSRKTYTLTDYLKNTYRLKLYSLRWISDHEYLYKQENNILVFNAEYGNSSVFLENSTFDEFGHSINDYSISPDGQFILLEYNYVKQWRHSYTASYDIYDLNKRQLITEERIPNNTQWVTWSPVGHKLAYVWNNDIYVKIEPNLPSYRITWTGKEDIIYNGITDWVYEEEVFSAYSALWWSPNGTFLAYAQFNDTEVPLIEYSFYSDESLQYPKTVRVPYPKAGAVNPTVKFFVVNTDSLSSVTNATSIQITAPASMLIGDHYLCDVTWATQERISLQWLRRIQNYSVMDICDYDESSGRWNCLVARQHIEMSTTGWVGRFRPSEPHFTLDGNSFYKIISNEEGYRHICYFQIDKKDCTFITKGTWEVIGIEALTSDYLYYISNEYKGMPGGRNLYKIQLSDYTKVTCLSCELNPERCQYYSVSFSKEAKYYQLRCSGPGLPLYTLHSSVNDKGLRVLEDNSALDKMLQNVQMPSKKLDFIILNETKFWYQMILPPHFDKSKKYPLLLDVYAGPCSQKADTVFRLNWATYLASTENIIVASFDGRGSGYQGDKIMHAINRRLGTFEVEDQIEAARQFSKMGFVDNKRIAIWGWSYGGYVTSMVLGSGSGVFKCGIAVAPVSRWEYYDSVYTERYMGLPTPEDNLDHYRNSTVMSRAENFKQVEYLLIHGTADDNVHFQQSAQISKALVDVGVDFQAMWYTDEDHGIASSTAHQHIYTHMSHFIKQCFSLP
ASSAY PROCEDURE: DPP-IV assay with Caco-2 cell extract as DPP-IV source
CONDITIONS USED: extract of human colon carcinoma cell line Caco-2, AFC substrate 100 μM, 60 minutes, room temperature; read-out: DPP IV inhibition IC50
pIC50: −log10 of the molar value.
REPORTED ENDPOINT: pIC50

{"COMPOUND": "CC#CCn1c(N2CCCNCC2)nc2c1c(=O)n(Cc1nc(C)cc3ccccc13)c(=O)n2C [1(2)]", "pIC50": 8.05}

1. CC#CCn1c(N2CCCNCC2)nc2c1c(=O)n(Cc1nc(C)c3ccccc3n1)c(=O)n2C [1(3)]
2. CC#CCn1c(N2CCNCC2)nc2c1c(=O)n(Cc1nc(C)cc3ccccc13)c(=O)n2C [1(1)]
Thinking about recorded pIC50 values, which is higher, 1 or 2 ? Field: selected label. Fill in the label of the entry you choose.
1
